Source: patent US20240409599A1

Would you mind telling me the reported koff of each entry?
Biological target: T1, Human IL-18BP (isoform A) (human, UniProt O95998 31-194, biotinylated (site not stated))
T1 construct: also called decoy receptor
T1 sequence: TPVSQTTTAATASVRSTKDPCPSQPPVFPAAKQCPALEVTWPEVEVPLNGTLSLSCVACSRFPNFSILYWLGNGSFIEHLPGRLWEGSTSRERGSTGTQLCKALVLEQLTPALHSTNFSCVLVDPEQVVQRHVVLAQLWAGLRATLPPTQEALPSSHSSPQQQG
Experiment: SPR, Biacore 8K, 37 C, biotinylated target on SA chip, single-cycle kinetics
Entry rule: numbers only, all in s⁻¹.

Q. Return koff for the following binder: Human IL-18 L174C (ligand, Made in mammalian cells) YFGKLESKLSVIRNLNDQVLFIDQGNRPLFEDMTDSDSRDNAPRTIFIISMYKDSQPRGMAVTISVKSEKISTLSCENKIISFKEMNPPDNIKDTKSDIIFFQRSVPGHDNKMQFESSSYEGYFLASEKERDLFKLICKKEDELGDRSIMFTVQNED
A. 2.1e-05

Q. Return koff for the following binder: Human IL-18 I107C/N123C (ligand, Made in mammalian cells) YFGKLESKLSVIRNLNDQVLFIDQGNRPLFEDMTDSDSRDNAPRTIFIISMYKDSQPRGMAVTISVKSEKCSTLSSENKIISFKEMCPPDNIKDTKSDIIFFQRSVPGHDNKMQFESSSYEGYFLASEKERDLFKLILKKEDELGDRSIMFTVQNED
A. 2.1e-05

Q. Return koff for the following binder: Human IL-18 T99C/P124C (ligand, Made in mammalian cells) YFGKLESKLSVIRNLNDQVLFIDQGNRPLFEDMTDSDSRDNAPRTIFIISMYKDSQPRGMAVCISVKSEKISTLSSENKIISFKEMNCPDNIKDTKSDIIFFQRSVPGHDNKMQFESSSYEGYFLASEKERDLFKLILKKEDELGDRSIMFTVQNED
A. 2.5e-05
